Test system: E. coli TOP10 ∆TolC, pHN678’ and pHN678’-LolA antisense
experimentDescription: MoA study: MIC in lolA antisense expressor
Assay type: cell-based, Escherichia coli
assaySetup: Escherichia coli, E. coli TOP10 ∆TolC + pHN678’-LolA antisense
Provide the recorded MIC for the entries that follow.
One number for each entry, in µg/mL.

As a guide, the following entries are already answered.
1. CCNc1cc(N2CCc3cc(NS(C)(=O)=O)ccc3C2C)nc(-c2cc(F)cc(C#N)c2)n1 (stereo not shown) [Compound 6] | 4
2. CC[C@H]1OC(=O)[C@H](C)[C@@H](O[C@H]2C[C@@](C)(OC)[C@@H](O)[C@H](C)O2)[C@H](C)[C@@H](O[C@@H]2O[C@H](C)C[C@H](N(C)C)[C@H]2O)[C@](C)(O)C[C@@H](C)CN(C)[C@H](C)[C@@H](O)[C@]1(C)O [Azithromycin] | 0.0039
3. C[C@@H](O)[C@H]1C(=O)N2C(C(=O)O)=C(SCCN=CN)C[C@H]12 [Imipenem] | 1

Now let's try a different one.
Return MIC measured with E. coli TOP10 ∆TolC, pHN678’ and pHN678’-LolA antisense given this molecule: O=C(O)c1cn(C2CC2)c2cc(N3CCNCC3)c(F)cc2c1=O [Ciprofloxacin] 0.0078

* * *

testSystem: S. aureus methionine aminopeptidase, MetAP (Staphylococcus aureus)
Sequence (P0A078 whole entry): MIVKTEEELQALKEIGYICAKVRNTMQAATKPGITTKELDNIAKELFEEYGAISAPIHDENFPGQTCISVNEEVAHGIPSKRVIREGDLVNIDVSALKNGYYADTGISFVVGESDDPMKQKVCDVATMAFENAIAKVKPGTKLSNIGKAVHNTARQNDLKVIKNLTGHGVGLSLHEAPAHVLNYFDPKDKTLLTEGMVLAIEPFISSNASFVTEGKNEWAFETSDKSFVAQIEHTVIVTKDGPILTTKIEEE
quantityName: IC50 (nM)
One number for each entry, in nM.

Return IC50 measured with S. aureus methionine aminopeptidase, MetAP (Staphylococcus aureus) given this compound: Cc1nnc(Cn2c(C(C)Cc3ccc4c(c3)OCO4)nc3cccc(Cl)c32)[nH]1 (stereo not shown) [Compound 3] 350

* * *

testSystem: A. baumannii UppS (Acinetobacter baumannii)
Sequence (V5VCK8 entry or part of it): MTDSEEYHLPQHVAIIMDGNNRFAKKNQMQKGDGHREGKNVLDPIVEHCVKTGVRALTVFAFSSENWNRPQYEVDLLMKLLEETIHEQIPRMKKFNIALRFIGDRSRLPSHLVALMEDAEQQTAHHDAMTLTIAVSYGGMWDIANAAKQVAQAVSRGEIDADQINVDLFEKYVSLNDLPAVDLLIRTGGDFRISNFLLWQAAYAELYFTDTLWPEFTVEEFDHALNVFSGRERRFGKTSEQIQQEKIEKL
quantityName: IC50 (nM)
Answers are plain numbers, in nM.

Tell me the measured IC50 of CNC(=O)[C@@H](NC(=O)c1cc(Cl)c(Cl)cc1C(=O)NCc1ccc(C(C)(C)C)cc1)C(C)(C)C [Compound 5] , please. 43

* * *

testSystem: M. tuberculosis Dihydrofolate reductase (DHFR) (Mycobacterium tuberculosis, UniProt P9WNX1)
Sequence (P9WNX1 whole entry): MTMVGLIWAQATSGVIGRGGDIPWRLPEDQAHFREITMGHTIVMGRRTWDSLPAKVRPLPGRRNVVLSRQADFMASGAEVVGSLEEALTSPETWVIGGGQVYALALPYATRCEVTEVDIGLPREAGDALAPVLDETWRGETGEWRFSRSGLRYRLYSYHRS
experimentDescription: biochemical
assaySetup: M. tuberculosis DHFR; average of two replicates with s.d.; read-out: IC50
quantityName: pIC50
Answers are plain numbers, as −log10 of the molar value.

1. Cc1cccc(NC(=O)Cc2c(C(=O)O)[nH]c3ccccc23)n1 | 5.31

Now let's try a different one.
Tell me the measured pIC50 of Cc1ccc(S(=O)(=O)NCCN(CCC(N)=O)C(=O)c2cc(O)cc(NC(=O)CN3C(=O)C(C)Oc4ccccc43)c2)cc1 (centres unmarked) , please. 6.31

* * *

testSystem: S. aureus methionyl-tRNA synthetase (MRS) (Staphylococcus aureus)
Sequence (Q5HII6 whole entry): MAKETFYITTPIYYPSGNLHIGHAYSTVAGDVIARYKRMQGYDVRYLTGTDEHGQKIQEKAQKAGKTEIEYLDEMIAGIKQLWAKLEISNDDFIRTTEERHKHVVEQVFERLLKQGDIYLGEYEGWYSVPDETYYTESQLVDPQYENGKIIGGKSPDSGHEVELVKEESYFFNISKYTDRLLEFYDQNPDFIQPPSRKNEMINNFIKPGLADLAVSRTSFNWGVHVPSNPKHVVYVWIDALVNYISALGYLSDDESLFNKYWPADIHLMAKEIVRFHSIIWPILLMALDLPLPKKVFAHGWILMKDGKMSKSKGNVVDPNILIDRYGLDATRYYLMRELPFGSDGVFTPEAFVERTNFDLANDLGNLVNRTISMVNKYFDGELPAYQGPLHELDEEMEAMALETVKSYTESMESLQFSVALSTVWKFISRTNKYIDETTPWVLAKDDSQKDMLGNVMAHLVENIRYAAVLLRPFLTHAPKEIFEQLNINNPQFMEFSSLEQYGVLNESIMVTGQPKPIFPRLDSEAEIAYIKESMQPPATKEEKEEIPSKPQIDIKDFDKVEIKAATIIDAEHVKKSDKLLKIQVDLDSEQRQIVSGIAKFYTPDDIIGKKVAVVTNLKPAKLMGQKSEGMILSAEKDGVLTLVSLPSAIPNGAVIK
quantityName: IC50 (nM)
One number for each entry, in nM.

Tell me the measured IC50 of CNC(=O)c1ccc2c(c1)nc(-c1ccc(Br)c(O)c1)n2C(CNC(=O)COc1ccccc1C(C)(C)C)c1ccc(OC)c(OC)c1 (stereo not shown) [Compound 1] , please. 0.83

* * *

testSystem: M. tuberculosis Dihydrofolate reductase (DHFR) (Mycobacterium tuberculosis)
experimentDescription: biochemical
quantityName: pIC50
Numbers only, as −log10 of the molar value.

Tell me the measured pIC50 of COc1ccc(OC)c(Cc2cnc3nc(N)nc(N)c3c2C)c1 , please. 6.21
